Tested on: lymphocytic leukemia P388
Test: Lymphocytic Leukemia P388 Test
Type: in vivo, BDF1 mice
Details: dose 0.75 mg/kg intraperitoneally on days 1, 5 and 9; ratio of survival time treated/control
Protocol: The animals used were BDF1 mice, all of one sex, weighing a minimum of 18 g and all within a 3 g weight range. There were 5 or 6 mice per test group. The tumor transplant was by intraperitoneal injection of 0.5 ml of dilute ascitic fluid containing 10^6 cells of lymphocytic leukemia P388. […] The animals were weighed and survivors recorded on a regular basis for 60 days. The median survival time and the ratio of survival time for treated (T)/control (C) animals were calculated.
endpoint-name: T/C × 100 (%)
// unit must come after the numeric part

Guide cases for T/C × 100 (%), answers given:
{"compound": "CC(C)(C)OC(=O)C[C@H](N)C(=O)NCCNc1ccc(NCCNC(=O)[C@@H](N)CC(=O)OC(C)(C)C)c2c1C(=O)c1c(O)ccc(O)c1C2=O (relative stereo)", "T/C × 100 (%)": "179%"}
{"compound": "N[C@@H](CC(=O)O)C(=O)NCCNc1ccc(NCCNC(=O)[C@@H](N)CC(=O)O)c2c1C(=O)c1c(O)ccc(O)c1C2=O.O=C(O)C(F)(F)F.O=C(O)C(F)(F)F (relative stereo)", "T/C × 100 (%)": "192%"}
{"compound": "C[C@H](NC(=O)[C@@H](N)CO)C(=O)NCCNc1ccc(NCCNC(=O)[C@H](C)NC(=O)[C@@H](N)CO)c2c1C(=O)c1c(O)ccc(O)c1C2=O.O=C(O)C(F)(F)F.O=C(O)C(F)(F)F", "T/C × 100 (%)": "183%"}

Just so you know, measured T/C × 100 (%) for `CC(C)C[C@H](NC(=O)[C@H](C)NC(=O)[C@@H](N)CC(=O)O)C(=O)NCCNc1ccc(NCCNC(=O)[C@H](CC(C)C)NC(=O)[C@H](C)NC(=O)[C@@H](N)CC(=O)O)c2c1C(=O)c1c(O)ccc(O)c1C2=O.O=C(O)C(F)(F)F.O=C(O)C(F)(F)F` came out at 240%
